target_entity: Muscarinic acetylcholine receptor M5 (Homo sapiens)
Sequence (P08912 whole entry): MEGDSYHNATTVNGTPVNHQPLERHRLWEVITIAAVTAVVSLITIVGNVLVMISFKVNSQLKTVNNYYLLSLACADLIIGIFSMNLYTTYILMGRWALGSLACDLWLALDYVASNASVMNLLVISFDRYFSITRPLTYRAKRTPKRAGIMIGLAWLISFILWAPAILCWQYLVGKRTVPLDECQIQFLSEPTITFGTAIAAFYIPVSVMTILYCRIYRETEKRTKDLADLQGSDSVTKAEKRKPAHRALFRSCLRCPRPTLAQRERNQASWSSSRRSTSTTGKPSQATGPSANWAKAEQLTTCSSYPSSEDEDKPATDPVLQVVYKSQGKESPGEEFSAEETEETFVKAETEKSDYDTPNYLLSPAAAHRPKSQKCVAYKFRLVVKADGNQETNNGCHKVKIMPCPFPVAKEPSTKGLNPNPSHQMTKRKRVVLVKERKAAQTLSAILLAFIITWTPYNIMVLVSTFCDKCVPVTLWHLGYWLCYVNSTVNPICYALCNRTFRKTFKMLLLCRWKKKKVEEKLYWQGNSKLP
Counter-ions that a name gives are not always drawn.
recorded_metric: log10 of Ki (log10 of the value in nM)
# log10 transformed; quantity=Ki; unit=nM

Use these answered entries as a reference point.
[[record]]
compound = "Cc1nn(C)c(C)c1-c1cccc2c1CC[C@H](N(C)C)C2"
recorded_metric = "log10 of Ki"
data_value = 2.49

[[record]]
compound = "C[N+]1(C)[C@@H]2C[C@@H](OC(=O)C(O)(c3cccs3)c3cccs3)C[C@H]1[C@@H]1O[C@@H]12 [TIOTROPIUM BROMIDE]"
recorded_metric = "log10 of Ki"
data_value = 0.09

[[record]]
compound = "Cc1c(P(=S)(c2ccccc2)c2ccccc2)n2ccccc2[n+]1C/C=C/c1ccccc1"
recorded_metric = "log10 of Ki"
data_value = 2.71

[[record]]
compound = "OC1(c2ccc(Cl)cc2)CCN(Cc2c[nH]c3ccccc23)CC1"
recorded_metric = "log10 of Ki"
data_value = 2.76

[[record]]
compound = "CN(C)C(=O)N[C@H]1CC[C@H](CCN2CCN(c3cccc(Cl)c3Cl)CC2)CC1 [CARIPRAZINE HYDROCHLORIDE]"
recorded_metric = "log10 of Ki"
data_value = 3.16

[[record]]
compound = "CN1CCC(C(=O)c2cccc(NC(=O)c3c(F)cc(F)cc3F)n2)CC1"
recorded_metric = "log10 of Ki"
data_value = 2.80

[[record]]
compound = "CCN(CC)CCCCC1CCN(CC(=O)N2c3ccccc3C(=O)Nc3cccnc32)CC1"
recorded_metric = "log10 of Ki"
data_value = 2.97


Below: the item to evaluate.
Prompt: log10 of Ki lookup needed for `COc1cc(-n2cnc3cc(-c4ccc(Cl)cc4)sc3c2=O)ccc1OCCN1CCCC1` , thanks.
Completion: 3.42

----------
This document collects Ki values reported for Muscarinic acetylcholine receptor M2 (Homo sapiens).
Structures can show the parent of a compound that is named as a salt.
# do not omit the unit; it follows the number

[[record]]
compound = "CCOC(=O)c1cc(C#N)c(N2CCC(C(=O)NS(=O)(=O)Cc3ccccc3)CC2)nc1C"
target_entity = "Muscarinic acetylcholine receptor M2 (Homo sapiens)"
recorded_metric = "Ki"
data_value = "9070 nM"

[[record]]
compound = "COc1ccc2cc(S(=O)(=O)N[C@H](CC(=O)N[C@H](Cc3ccc(CN4[C@H](C)CCC[C@@H]4C)cc3)C(=O)N(C)C(C)C)c3ccc4c(c3)OCO4)ccc2c1"
target_entity = "Muscarinic acetylcholine receptor M2 (Homo sapiens)"
recorded_metric = "Ki"
data_value = "528 nM"

[[record]]
compound = "Cc1cn2cc(CC(=O)N3CCC4(CC3)CN(Cc3ccc(-n5nccn5)cc3Cl)C4)nc2s1"
target_entity = "Muscarinic acetylcholine receptor M2 (Homo sapiens)"
recorded_metric = "Ki"
data_value = "243 nM"

[[record]]
compound = "CN1CCN(c2ccc(Nc3c4ccccc4nc4ccccc34)cc2)CC1"
target_entity = "Muscarinic acetylcholine receptor M2 (Homo sapiens)"
recorded_metric = "Ki"
data_value = "204 nM"

[[record]]
compound = "CN1CCC(=C2c3ccccc3CC(=O)c3sccc32)CC1 [KETOTIFEN FUMARATE]"
target_entity = "Muscarinic acetylcholine receptor M2 (Homo sapiens)"
recorded_metric = "Ki"
data_value = "244 nM"

[[record]]
compound = "c1cc(CN2CCCNCCNCCCNCC2)ccc1CN1CCCNCCNCCCNCC1"
target_entity = "Muscarinic acetylcholine receptor M2 (Homo sapiens)"
recorded_metric = "Ki"
data_value = "1010 nM"


Read the next record carefully.
Prompt: Field: Ki (Muscarinic acetylcholine receptor M2 (Homo sapiens)). Entry: `Cc1c(P(=S)(c2ccccc2)c2ccccc2)n2ccccc2[n+]1C/C=C/c1ccccc1`
Completion: 805 nM

----------
target_entity: UniProt P41145
Sequence (P41145 whole entry): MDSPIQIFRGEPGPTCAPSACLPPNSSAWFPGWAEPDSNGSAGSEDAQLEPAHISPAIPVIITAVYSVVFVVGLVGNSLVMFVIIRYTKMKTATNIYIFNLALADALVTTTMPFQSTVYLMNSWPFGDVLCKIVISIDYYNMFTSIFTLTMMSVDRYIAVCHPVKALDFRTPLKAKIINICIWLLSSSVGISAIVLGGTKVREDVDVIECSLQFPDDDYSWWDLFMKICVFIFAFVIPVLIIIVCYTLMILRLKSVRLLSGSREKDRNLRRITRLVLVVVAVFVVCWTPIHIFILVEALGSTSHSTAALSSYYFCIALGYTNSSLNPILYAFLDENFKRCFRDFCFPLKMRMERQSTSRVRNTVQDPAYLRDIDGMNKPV
pKi: −log10 of the molar value. Counter-ions that a name gives are not always drawn.
Tick Y if pKi is 6 or greater. Tick N if pKi is less than 6.

Prompt: Confirm if pKi reported for the compound `O=C(Cc1ccc(Cl)c(Cl)c1)N1CCCC[C@H]1CN1CCCC1` is 6 or above.
Completion: Y

Prompt: API: above_or_equal(metric=pKi, cutoff=6) for item COc1cccc(-c2c(C)n(Cc3c(F)cccc3C(F)(F)F)c(=O)n(C[C@H](NCCCC(=O)O)c3ccccc3)c2=O)c1F [ELAGOLIX SODIUM]
Completion: N

Prompt: Tell me whether pKi is at least 6 here: C[C@@H](NCCCc1cccc(C(F)(F)F)c1)c1cccc2ccccc12 [CINACALCET HYDROCHLORIDE]
Completion: Y

Prompt: Has `C=CCN1C[C@H](C)N([C@H](c2ccc(C(=O)N(CC)CC)cc2)c2cccc(O)c2)C[C@H]1C` a recorded pKi greater than or equal to 6?
Completion: Y

Prompt: Would you say `c1ccc(N2CCN(Cc3nc4ccccc4[nH]3)CC2)nc1` shows pKi at minimum 6?
Completion: N

Prompt: Please indicate if the recorded pKi for `Cc1c(P(=S)(c2ccccc2)c2ccccc2)n2ccccc2[n+]1C/C=C/c1ccccc1` meets or exceeds 6.
Completion: Y

----------
target_entity: 5-hydroxytryptamine receptor 2C (Homo sapiens, UniProt P28335)
Sequence (P28335 whole entry): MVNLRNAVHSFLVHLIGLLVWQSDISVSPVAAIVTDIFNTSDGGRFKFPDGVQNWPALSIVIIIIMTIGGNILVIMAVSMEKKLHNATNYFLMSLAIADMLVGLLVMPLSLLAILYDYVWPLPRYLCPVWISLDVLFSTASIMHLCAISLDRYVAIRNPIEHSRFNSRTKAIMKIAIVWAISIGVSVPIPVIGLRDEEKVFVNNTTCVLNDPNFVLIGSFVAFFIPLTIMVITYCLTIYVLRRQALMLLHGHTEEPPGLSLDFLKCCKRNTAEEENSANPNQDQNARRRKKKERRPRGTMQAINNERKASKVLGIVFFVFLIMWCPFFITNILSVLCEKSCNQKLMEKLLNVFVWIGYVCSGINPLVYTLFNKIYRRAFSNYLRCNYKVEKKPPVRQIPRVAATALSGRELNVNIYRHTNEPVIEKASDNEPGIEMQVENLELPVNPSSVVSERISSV
pKi: −log10 of the molar value. Where a name gives a salt, the structure may show the parent alone.
Classification field: enter y for pKi values not below 7, n for values below it.

Here are 5 compounds together with their reported answers.
[[record]]
compound = "CN1C[C@H](C(=O)N[C@]2(C)O[C@@]3(O)[C@@H]4CCCN4C(=O)[C@H](Cc4ccccc4)N3C2=O)C[C@@H]2c3cccc4[nH]cc(c34)C[C@H]21 [DIHYDROERGOTAMINE MESYLATE]"
assigned_class = "n"

[[record]]
compound = "Cc1nc2sccn2c(=O)c1CCN1CCC(=C(c2ccc(F)cc2)c2ccc(F)cc2)CC1 [RITANSERIN]"
assigned_class = "y"

[[record]]
compound = "OCc1cc(C(O)CNCCCCCCOCCCCc2ccccc2)ccc1O (stereo not drawn) [SALMETEROL]"
assigned_class = "n"

[[record]]
compound = "Clc1ccc(CCCOCCCN2CCCCC2)cc1 [PITOLISANT HYDROCHLORIDE]"
assigned_class = "n"

[[record]]
compound = "CNc1nc(NCc2ccc(NS(C)(=O)=O)cc2Cl)cc(-c2ccccn2)n1"
assigned_class = "n"


Prompt: Say whether O=c1ccc2ccc(OCCCCN3CCN(c4cccc5sccc45)CC3)cc2[nH]1 [BREXPIPRAZOLE] shows pKi of 7 or more.
Completion: y

Prompt: Item `COc1ccc(NC(=O)c2ccc(-c3ccc(-c4noc(C)n4)cc3C)cc2)cc1OCCN(C)C` with pKi of 7 or above?
Completion: n

----------
target_entity: UniProt P08908
Sequence (P08908 whole entry): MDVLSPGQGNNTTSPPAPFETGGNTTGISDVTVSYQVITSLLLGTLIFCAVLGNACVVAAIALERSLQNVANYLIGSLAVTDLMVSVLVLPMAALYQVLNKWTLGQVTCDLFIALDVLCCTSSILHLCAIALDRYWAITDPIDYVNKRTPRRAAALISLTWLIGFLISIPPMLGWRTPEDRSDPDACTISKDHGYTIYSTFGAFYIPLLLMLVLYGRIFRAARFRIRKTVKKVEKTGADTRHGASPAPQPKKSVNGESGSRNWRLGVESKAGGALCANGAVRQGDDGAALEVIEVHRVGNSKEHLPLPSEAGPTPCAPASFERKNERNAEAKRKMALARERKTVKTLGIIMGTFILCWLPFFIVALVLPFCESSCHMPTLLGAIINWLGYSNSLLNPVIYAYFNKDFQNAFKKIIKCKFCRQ
assay_method_text: PDSP Secondary Binding target: HTR1A - Compounds are tested at 10 uM concentration, plate are incubated at room temperature in the dark for 90 minutes. Reaction are stopped by vacuum filtration onto 0.3% polyethyleneimine soaked filter mats using Filtermate harvester. Scintillation cocktail is then melted onto microwave-dried filters on a hot plate and the radio activity is counted in Microbia counter.
pKi: −log10 of the molar value. Where a name gives a salt, the structure may show the parent alone.
Param threshold (6) applies to pKi; output fulfilled when value >= threshold, not fulfilled when value < threshold.

See these solved cases before continuing.
[[record]]
molecule = "C[C@@H](NCCCc1cccc(C(F)(F)F)c1)c1cccc2ccccc12 [CINACALCET HYDROCHLORIDE]"
target_entity = "UniProt P08908"
assigned_class = "not fulfilled"

[[record]]
molecule = "CCCCCNC(=N)N/N=C/c1c[nH]c2ccc(OC)cc12 [TEGASEROD MALEATE]"
target_entity = "UniProt P08908"
assigned_class = "fulfilled"

[[record]]
molecule = "C[C@H](Cc1cc2c(c(C(N)=O)c1)N(CCCO)CC2)NCCOc1ccccc1OCC(F)(F)F"
target_entity = "UniProt P08908"
assigned_class = "fulfilled"


Prompt: Does pKi meet or surpass 6 for CN1C[C@H](C(=O)N[C@]2(C)O[C@@]3(O)[C@@H]4CCCN4C(=O)[C@H](Cc4ccccc4)N3C2=O)C[C@@H]2c3cccc4[nH]cc(c34)C[C@H]21 [DIHYDROERGOTAMINE MESYLATE] ?
Completion: fulfilled

Prompt: Decide: is the reported value of pKi for `Cc1nn(C)c(C)c1-c1cccc2c1CC[C@H](N(C)C)C2` equal to or greater than 6?
Completion: not fulfilled

Prompt: In plain terms: is recorded pKi at least 6 for `COC(=O)C1=C(C)NC(C)=C(C(=O)OCCCN2CCC(c3ccccc3)(c3ccccc3)CC2)[C@H]1c1cccc([N+](=O)[O-])c1` ?
Completion: fulfilled

Prompt: I'd appreciate it if you could say whether `O=C(O)c1cc(-c2ccc(C3CCNCC3)cc2)c2ccc(-c3ccc(C(F)(F)F)cc3)cc2c1` has pKi at least equal to 6.
Completion: not fulfilled
